molecular target: Mtb BioA (Mycobacterium tuberculosis); format: binding; settings: ITC, 25 °C, 100 µM BioA, pH 7.5
Sequence (P9WQ81 whole entry): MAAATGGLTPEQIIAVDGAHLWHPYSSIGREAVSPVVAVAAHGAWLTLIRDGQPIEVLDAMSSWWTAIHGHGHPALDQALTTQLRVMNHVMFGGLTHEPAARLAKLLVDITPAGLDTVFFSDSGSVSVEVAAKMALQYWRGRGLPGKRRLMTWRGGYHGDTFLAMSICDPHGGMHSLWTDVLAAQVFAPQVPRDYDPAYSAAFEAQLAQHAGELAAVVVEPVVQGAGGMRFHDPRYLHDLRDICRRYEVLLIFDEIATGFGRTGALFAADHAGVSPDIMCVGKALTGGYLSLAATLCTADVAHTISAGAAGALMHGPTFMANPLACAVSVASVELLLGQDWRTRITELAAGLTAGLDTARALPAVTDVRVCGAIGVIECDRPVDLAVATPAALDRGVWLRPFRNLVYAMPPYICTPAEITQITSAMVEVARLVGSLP
Below, each of the molecules is paired with its reported ΔH value.
Measured property: ΔH (kcal/mol)

> print(dat)
             molecule.smiles                            target.desc  result
1      CNCc1ccc(Cn2cccn2)cc1  Mtb BioA (Mycobacterium tuberculosis)   -12.9
2   NCc1ccc(Cn2cc(Cl)cn2)cc1  Mtb BioA (Mycobacterium tuberculosis)   -11.3
3            NCc1nc2ccccc2s1  Mtb BioA (Mycobacterium tuberculosis)    -1.4
4      O=C(c1ccccc1)C1CCNCC1  Mtb BioA (Mycobacterium tuberculosis)    -4.9
5   NC(=O)c1ccc(-n2ccnc2)cc1  Mtb BioA (Mycobacterium tuberculosis)    -6.3
6   NC(=O)c1ccc(-c2ccccn2)s1  Mtb BioA (Mycobacterium tuberculosis)    -5.4
7  CC(=O)Nc1ccc2c(c1)C=CC2=O  Mtb BioA (Mycobacterium tuberculosis)    -3.3
